Test system: SNB-19
Assay: NCI tumour cell line growth inhibition, 48 h
Activity calls are given as the source filed them. Rule as the data show it: active = GI50 up to about 1.1 µM and inactive = higher.
assayEndpoint: GI50

CC[C@]1(Cc2ccc(OC)c(OC)c2)C=[N+]([O-])O[C@H](OCc2ccccc2)[C@@H]1OC(C)=O :: 58.3 µM (inactive)

Query: Read off the recorded GI50 for CCOC(=O)C1=C(c2ccccc2)C12N(Cc1ccccc1)C(=O)C2(c1ccccc1)c1ccccc1 (centres undefined)
Reply: 96.8 µM (inactive)

Query: Read off the recorded GI50 for COC(=O)C(C(=O)C(=O)NC1Nc2ccc(C)cc2S1)c1nc2ccc(Cl)cc2nc1O (centres undefined)
Reply: 96.4 µM (inactive)

Query: Read off the recorded GI50 for CC(C)OP(=O)(OC(C)C)/C(C#N)=C/c1ccco1
Reply: > 100 µM (inactive)

Query: Read off the recorded GI50 for COc1cc(/C=C2\CCC(C)C3=C2NC(=S)NC3c2cc(OC)c(OC)c(OC)c2)cc(OC)c1OC (centres undefined)
Reply: 51.8 µM (inactive)

Query: Read off the recorded GI50 for CCCCCCCCCCCCCCCCNc1ccc2c(c1)OCCOCCOCCOCCO2
Reply: 3.37 µM (inactive)

Query: Read off the recorded GI50 for Cc1nc(-n2nc(-c3ccccc3)cc2-c2ccccc2)sc1C(=O)/C=C/c1ccc(Cl)c(Cl)c1
Reply: 16.3 µM (inactive)

Query: Read off the recorded GI50 for COc1ccc(S(=O)(=O)c2ccccc2[N+](=O)[O-])cc1
Reply: > 100 µM (inactive)

Query: Read off the recorded GI50 for CC1=CC=CC(C)(C)CC1(O[Si](C)(C)C)C(F)(F)F (centres undefined)
Reply: > 100 µM (inactive)

Query: Read off the recorded GI50 for CS(=O)(=O)OCCN(CCOS(C)(=O)=O)c1ccc(/C=N/c2ccc(-c3csc(COc4ccccc4)n3)cc2)cc1
Reply: 9.16 µM (inactive)
